B1: glmS ribozyme (parent)
chain: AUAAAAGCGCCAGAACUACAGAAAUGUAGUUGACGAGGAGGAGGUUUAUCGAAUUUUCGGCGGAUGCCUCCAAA

Variants of: B1
Method: self-cleavage kobs at 2500 uM GlcN6P; higher = faster cleavage; RNA array
Run parameters: with glucosamine-6-phosphate
Fewer inactive variants are shown than the library holds.
Recorded self-cleavage kobs at 2500 uM GlcN6P values for a group of variants are listed next.
Quantity name: self-cleavage kobs at 2500 uM GlcN6P (s⁻¹)

Mutant: G32A G51C
Measurement unit: s⁻¹
Comparator: <
Assay result: 1e-05

Mutant: C11A G21U
Measurement unit: s⁻¹
Comparator: =
Assay result: 9.85e-05

Mutant: A42G G43A G62U
Measurement unit: s⁻¹
Comparator: <
Assay result: 1e-05

Mutant: G7C G51U
Measurement unit: s⁻¹
Comparator: <
Assay result: 1e-05

Mutant: C8A G41U
Measurement unit: s⁻¹
Comparator: <
Assay result: 1e-05

Mutant: U57C C71A
Measurement unit: s⁻¹
Comparator: =
Assay result: 2.96e-05

Mutant: G7U G35U C50U
Measurement unit: s⁻¹
Comparator: <
Assay result: 1e-05

Mutant: A6U G37U G40U
Measurement unit: s⁻¹
Comparator: <
Assay result: 1e-05

Mutant: A14U G32U
Measurement unit: s⁻¹
Comparator: =
Assay result: 0.000422

Mutant: C11U G29U U54A
Measurement unit: s⁻¹
Comparator: =
Assay result: 0.000171

Mutant: A12U G29A
Measurement unit: s⁻¹
Comparator: =
Assay result: 0.00409

Mutant: C8U A12U G51U
Measurement unit: s⁻¹
Comparator: <
Assay result: 1e-05

Mutant: C50U C70G
Measurement unit: s⁻¹
Comparator: =
Assay result: 6.07e-05

Mutant: U30C U45G U56G C68G
Measurement unit: s⁻¹
Comparator: <
Assay result: 1e-05

Mutant: C58U C68G
Measurement unit: s⁻¹
Comparator: =
Assay result: 8.11e-05

Mutant: U30A C67A
Measurement unit: s⁻¹
Comparator: =
Assay result: 0.00102

Mutant: C16U U31C C68U
Measurement unit: s⁻¹
Comparator: =
Assay result: 0.00018

Mutant: C11U U46G
Measurement unit: s⁻¹
Comparator: =
Assay result: 0.00018

Mutant: A48U G51U
Measurement unit: s⁻¹
Comparator: <
Assay result: 1e-05

Mutant: A15U G51U U65A
Measurement unit: s⁻¹
Comparator: <
Assay result: 1e-05

Mutant: G41U U55A
Measurement unit: s⁻¹
Comparator: =
Assay result: 0.000105

Mutant: U46G C71A
Measurement unit: s⁻¹
Comparator: =
Assay result: 0.000985
